molecular target: Cholinesterase (Homo sapiens)
Sequence (P06276 whole entry): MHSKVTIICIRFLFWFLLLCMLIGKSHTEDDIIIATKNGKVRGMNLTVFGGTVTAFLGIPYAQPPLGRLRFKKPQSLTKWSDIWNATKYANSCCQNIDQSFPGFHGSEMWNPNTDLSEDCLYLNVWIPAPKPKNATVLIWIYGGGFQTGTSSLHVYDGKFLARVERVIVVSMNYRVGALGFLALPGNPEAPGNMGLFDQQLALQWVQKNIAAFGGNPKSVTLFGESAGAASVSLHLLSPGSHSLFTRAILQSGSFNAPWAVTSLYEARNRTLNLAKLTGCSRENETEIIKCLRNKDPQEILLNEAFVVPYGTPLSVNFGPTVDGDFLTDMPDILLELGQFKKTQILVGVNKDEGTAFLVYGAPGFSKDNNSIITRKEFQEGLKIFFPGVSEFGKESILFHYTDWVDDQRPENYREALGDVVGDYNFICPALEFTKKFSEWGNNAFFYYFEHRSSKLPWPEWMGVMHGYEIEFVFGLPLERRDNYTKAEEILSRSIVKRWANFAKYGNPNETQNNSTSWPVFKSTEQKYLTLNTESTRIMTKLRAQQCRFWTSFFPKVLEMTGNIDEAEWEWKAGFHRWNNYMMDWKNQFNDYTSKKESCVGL
pIC50: −log10 of the molar value.
Classify as follows. Reported pIC50 greater than or equal to 7: Satisfied. Reported pIC50 below: Not satisfied.

Consider the worked cases shown below.
Incoming: Has COc1ccc2nc3c(c(NCCCNC4=CC(=O)c5ccccc5C4=O)c2c1)CCCC3 a recorded pIC50 greater than or equal to 7?
Outgoing: Not satisfied

Incoming: Has O=C1C(NCCNc2c3c(nc4ccccc24)CCCC3)=CC(=O)c2c(O)cccc21 a recorded pIC50 greater than or equal to 7?
Outgoing: Satisfied

Incoming: Has COc1ccc2nc3c(c(NCCCNC4=C(Cl)C(=O)c5ccccc5C4=O)c2c1)CCCC3 a recorded pIC50 greater than or equal to 7?
Outgoing: Not satisfied

Incoming: Has O=C1C=C(NCCNc2c3c(nc4cc(Cl)ccc24)CCCC3)C(=O)c2ccccc21 a recorded pIC50 greater than or equal to 7?
Outgoing: Not satisfied

Incoming: Has O=C1C=C(NCCCNc2c3c(nc4cc(Cl)ccc24)CCCC3)C(=O)c2ccccc21 a recorded pIC50 greater than or equal to 7?
Outgoing: Not satisfied

Incoming: Has O=C1C(Cl)=C(NCCCNc2c3c(nc4cc(Cl)ccc24)CCCC3)C(=O)c2ccccc21 a recorded pIC50 greater than or equal to 7?
Outgoing: Not satisfied

Incoming: Has O=C1C(Cl)=C(NCCCNc2c3c(nc4ccccc24)CCCC3)C(=O)c2ccccc21 a recorded pIC50 greater than or equal to 7?
Outgoing: Satisfied

Incoming: Has COc1ccc2nc3c(c(NCCNC4=CC(=O)c5ccccc5C4=O)c2c1)CCCC3 a recorded pIC50 greater than or equal to 7?
Outgoing: Not satisfied

Now consider a different molecule.
Incoming: Has O=C1C(NCCCNc2c3c(nc4cc(Cl)ccc24)CCCC3)=CC(=O)c2c(O)cccc21 a recorded pIC50 greater than or equal to 7?
Outgoing: Not satisfied

src = ChEMBL document CHEMBL3351527
